- System: TRPA1V1
- run_description: Intracellular calcium (Fluo-4, FLIPR) activation of TRPA1V1 cells (co-expressing TRPA1 and TRPV1) by GRAS compounds;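 also: HEK293 cells co-expressing TRPA1 and TRPV1, fluorescence read at 488/514 nm after baseline subtraction, recorded every 2 s over 10 min, ionomycin 10 µM and buffer as controls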
- Assay type: cell-based, human
- measurement_context: Table 1(a); 1 mM; relative to AITC 30 μM; average of three plates
Reported A1V1 activation, % of agonist value values for the following compounds.

compound	A1V1 activation, % of agonist value (%)
CCCCc1ccco1	62.77
CC1=C(CC=O)C(C)(C)CCC1	66.79
C=CC(=O)CCCCC	98.9
CC/C=C\C/C=C\C/C=C\CCCCCCCC(=O)OC [Methyl linolenate]	104
CCCc1ccccc1O	183.8
c1ccc(CCCc2ccccn2)cc1	74.53
